SYSTEM_TESTED: PDGF-BB (Homo sapiens, UniProt P01127)
Sequence (P01127 82-190 limits assumed): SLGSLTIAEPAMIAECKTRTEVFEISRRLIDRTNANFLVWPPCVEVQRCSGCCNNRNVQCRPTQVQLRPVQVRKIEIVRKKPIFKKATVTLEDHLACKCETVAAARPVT
MEASUREMENT_DESCRIPTION: Equilibrium binding of PDGF-BB to FN, FN domains and peptides
Where no end group is shown, it is not given here.
READOUT: Kd (nM)

| RESIDUE_CODES | MEASURE_UNIT | ENDPOINT_RESULT |
| --- | --- | --- |
| QPSHISKYILRWRPKNSVGRWKEAT [peptide 1] | nM | 250 |
